Source: ChEMBL document CHEMBL1136737

biological target: Queuine tRNA-ribosyltransferase (Zymomonas mobilis (strain ATCC 31821 / ZM4 / CP4), UniProt P28720); assay: Inhibitory activity against eubacterial tRNA guanine transglycosylase (TGT) from Zymomonas mobilis
Sequence (P28720 whole entry): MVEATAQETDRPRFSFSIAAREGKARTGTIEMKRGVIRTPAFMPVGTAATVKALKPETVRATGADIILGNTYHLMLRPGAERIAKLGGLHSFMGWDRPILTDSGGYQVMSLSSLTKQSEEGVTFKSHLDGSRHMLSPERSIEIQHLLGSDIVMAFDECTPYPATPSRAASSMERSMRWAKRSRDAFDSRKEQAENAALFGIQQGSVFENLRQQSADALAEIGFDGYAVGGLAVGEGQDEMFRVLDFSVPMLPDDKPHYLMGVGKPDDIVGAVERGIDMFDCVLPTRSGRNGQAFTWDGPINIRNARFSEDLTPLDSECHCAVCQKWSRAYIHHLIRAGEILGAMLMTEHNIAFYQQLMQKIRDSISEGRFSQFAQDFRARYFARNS
Label key: YES means Ki under 40 µM; NO means Ki of 40 µM or more.

INSERT INTO results (structure_as_smiles, label_class) VALUES
  ('Nc1c2c(O)nc(O)cc2nn1CCO', 'YES'),
  ('Nc1nc2nc(-c3ccccc3)cnc2c(=O)[nH]1', 'YES'),
  ('Nc1nc2nccnc2c(=O)[nH]1', 'YES'),
  ('Nc1[nH]nc2nc(-c3ccccc3)[nH]c(=O)c12', 'NO'),
  ('Nc1nc(O)c2[nH]c(SCc3ccc(Cl)cc3)nc2n1', 'YES'),
  ('Cc1cnc2nc(N)nc(O)c2n1', 'YES'),
  ('Cc1csc2c(O)c3c(=O)[nH][nH]c(=O)c3nc12', 'YES'),
  ('Nc1cccc2c(=O)[nH][nH]c(=O)c12', 'YES'),
  ('O=c1[nH][nH]c(=O)c2[nH]cnc12', 'NO'),
  ('NNC(=O)c1cc2cc(F)ccc2[nH]1', 'NO'),
  ('Nc1nc(O)c2[nH]c(N3CCCCC3)nc2n1', 'YES'),
  ('Cc1ccc2[nH]c3nnc(N)c-3cc2c1', 'NO'),
  ('O=c1[nH][nH]c(=O)c2c(O)c3sccc3nc12', 'YES');
